# TARGET ENTITY: T1, HipAso D306Q active site mutant (non-phosphorylated) (Shewanella oneidensis MR-1, UniProt Q8EIX3 1-433, D306Q)
# T1 sequence: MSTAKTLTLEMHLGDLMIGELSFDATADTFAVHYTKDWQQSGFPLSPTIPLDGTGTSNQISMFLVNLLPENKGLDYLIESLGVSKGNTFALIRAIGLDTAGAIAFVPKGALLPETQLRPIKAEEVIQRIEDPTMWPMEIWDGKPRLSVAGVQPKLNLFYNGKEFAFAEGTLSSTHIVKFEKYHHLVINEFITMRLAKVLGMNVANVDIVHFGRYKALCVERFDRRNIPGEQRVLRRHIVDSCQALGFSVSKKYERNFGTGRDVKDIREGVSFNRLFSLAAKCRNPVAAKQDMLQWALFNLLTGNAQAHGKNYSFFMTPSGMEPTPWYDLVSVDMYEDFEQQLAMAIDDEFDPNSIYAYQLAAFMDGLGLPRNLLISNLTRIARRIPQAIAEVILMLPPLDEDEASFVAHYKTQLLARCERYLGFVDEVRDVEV
# ASSAY NOTES: ITC
MEASURED PARAMETER: pKd
The scale used: pKd is minus the common logarithm of the concentration in molar units.

input: Look up pKd: Shewanella oneidensis MR-1 HipBso (SO0705) (natural protein, UniProt Q8EIX4 1-78, looked up) MASPLNQQSLGLLIKERRKSAALTQDVAAMLCGVTKKTLIRVEKGEDVYISTVFKILDGLGIDIVSAQTSDTETNGWY
output: 6.52

These data points were gathered from paper PMC4150777.
